Tested on: SNB-75 CNS
ASSAY_METHOD_TEXT: NCI-60 one-dose screen, 48 h (100 = growth as untreated, 0 = no growth, -100 = all killed)
TEST_PARAMETERS: 10 µM
Method: Growth inhibition of the SNB-75 human tumor cell line is measured as a screen for anti-cancer activity. Cells are grown in 96 well plates and exposed to the test compound for 48 hours. Compounds are tested at a single concentration, which is 10^-5 M for most compounds. The reported endpoint is percent growth (GI% or GIPRCNT), where numbers from 0 - 100% represent growth inhibition, and numbers from -100% - 0 represent cell death. For example, a value of 40 represents 60% growth inhibition. […]
The panel holds about 83,000 compounds, 20% with a hit somewhere; the sample as a whole holds those more often.
Exercise: for every item that follows, state its recorded growth.
Report the figure in % without appending any unit label.

q: Return value of growth for input `COc1ccc2nc(NC(=O)Nc3c(F)cccc3F)sc2c1` , no commentary.
a: 118

q: Return value of growth for input `Cc1cc(Nc2cccc(F)c2)nc(NCc2ccccc2)n1` , no commentary.
a: 50.5

q: Return value of growth for input COc1nc2c(c(=O)[nH]1)C(c1ccc(Oc3ccnc4cc(Cl)ccc34)c(OC)c1)C=C(c1cc(OC)c(OC)c(OC)c1)N2 (stereo unspecified) , no commentary.
a: 91.9

q: Return value of growth for input `O=C(O)CNS(=O)(=O)c1ccc(OCCOc2ccc(S(=O)(=O)NCC(=O)O)cc2)cc1` , no commentary.
a: 97.2

q: Return value of growth for input CC1=CC2OC34COC3CC(OC(=O)C(F)(F)F)C4(C)C2(C)CC1 (stereo unspecified) , no commentary.
a: 86

q: Return value of growth for input `Cc1ccccc1C1=N[C@@H](Cc2ccccc2)C(=O)c2c(nc3ccccn23)N1` , no commentary.
a: 70.8

q: Return value of growth for input `COc1cc(-c2nc(-c3nnc(-c4cccnc4)o3)c3ccccn23)cc(OC)c1OC` , no commentary.
a: 96.7

q: Return value of growth for input COc1cccc(C2(C)Nc3ccccc3-c3nc4ccccc4n32)c1 (stereo unspecified) , no commentary.
a: 103

q: Return value of growth for input `O=C1NN(c2ccccc2)C(c2cccnc2)=N/C1=C\c1cccnc1` , no commentary.
a: 79.6

q: Return value of growth for input CCN1CCOC1C(C)C (stereo unspecified) , no commentary.
a: 99.8

q: Return value of growth for input `CCCCCCCOc1cccc(/C=C2/C(=O)N=C3SCCCN32)c1` , no commentary.
a: 75.1

The reported measurements were obtained from PubChem BioAssay (NCI).
